The values you see were collected from the METLIN SMRT retention time set (Domingo-Almenara et al. 2019).

Reported RP-LC retention time is given for each of the following compounds.
# assayName: gradient 5% acetonitrile 3 min, to 50% in 2 min, to 85% in 15 min, held 3 min, 100 µL/min
# conditionSet: column: Zorbax Extend-C18 2.1 x 50 mm; eluents: water / acetonitrile, 0.1% formic acid
The reply should be a number in s, with the unit left off.

Some compounds with known RP-LC retention time results, for comparison:
compound: Cc1ccc(Cl)cc1N(C)C(=O)Cn1ccc2c(=O)n(C)c(=O)n(C)c21
RP-LC retention time (s): 738
--
compound: CC(C)c1nnc(-c2ccc(S(=O)(=O)N3CCCCC3)o2)o1
RP-LC retention time (s): 890
--
compound: CCOc1ccc(-c2noc(CN3N=NC4C(=O)N(c5ccc(CC)cc5)C(=O)C43)n2)cc1OC (stereo not given)
RP-LC retention time (s): 1030
--
compound: CCn1c(=O)sc2cc(S(=O)(=O)N3CCC(C(=O)NCc4ccccn4)CC3)ccc21
RP-LC retention time (s): 629

Give RP-LC retention time for COCCCN1C(=O)c2ccc(-c3ccco3)n2CC1(C)C(=O)NCc1ccccc1 (stereo not given)
817

====

# assayName: gradient 5% acetonitrile 3 min, to 50% in 2 min, to 85% in 15 min, held 3 min, 100 µL/min
# conditionSet: column: Zorbax Extend-C18 2.1 x 50 mm; eluents: water / acetonitrile, 0.1% formic acid
Reported RP-LC retention time is given for each of the following compounds.
The reply should be a number in s, with the unit left off.

Some compounds with known RP-LC retention time results, for comparison:
compound: Cc1ccsc1C(=O)Nc1ccc(OCc2nnc(-c3ccc(Cl)cc3)o2)cc1
measurementUnits: s
RP-LC retention time: 1010
//
compound: O=S(=O)(Nc1ccc(F)cc1)c1ccc(-c2nnc(C3CCC3)o2)o1
measurementUnits: s
RP-LC retention time: 888
//
compound: O=C1N(c2cccc(F)c2)c2ncccc2S(=O)(=O)N1Cc1ccccc1
measurementUnits: s
RP-LC retention time: 1020
//
compound: CN1CC[C@@]2(C)c3cc(OC(=O)Nc4ccccc4)ccc3N(C)[C@@H]12
measurementUnits: s
RP-LC retention time: 718
//
compound: Cc1ccc(NC(=O)Nc2ccc3c(c2)CCN3S(=O)(=O)c2ccccc2)cc1C
measurementUnits: s
RP-LC retention time: 1030

API: the following record is the query input.
Give RP-LC retention time for COc1ccc(-n2c(=O)n(C)c(=O)c3cc(C(=O)Nc4ccc(C(N)=O)cc4)cnc32)cc1
668

====

# assayName: gradient 5% acetonitrile 3 min, to 50% in 2 min, to 85% in 15 min, held 3 min, 100 µL/min
# conditionSet: column: Zorbax Extend-C18 2.1 x 50 mm; eluents: water / acetonitrile, 0.1% formic acid
Reported RP-LC retention time is given for each of the following compounds.
The reply should be a number in s, with the unit left off.

compound: O=C(NCc1nc(-c2cccc(-c3csc(C4CC4)n3)c2)no1)c1ccccc1
RP-LC retention time / s: 1030
--
compound: O=C(Cn1ncn2c(cc3cc(F)ccc32)c1=O)N1CCN(c2ccccn2)CC1
RP-LC retention time / s: 605
--
compound: CCCCN(C)C(=O)Cn1c(=O)c2cnc(-c3ccccc3)nc2n(C)c1=O
RP-LC retention time / s: 1000

Give RP-LC retention time for CCCN1CCN(S(=O)(=O)c2cc(-c3[nH]ncc3C(=O)N(C)C)oc2C)CC1
566

Give RP-LC retention time for CC(C)C(=O)Nc1ccc(N2CCN(CC(=O)N3CCCC3)CC2)cc1C(=O)O
587

Give RP-LC retention time for COc1ccc(C)cc1NC(=O)N1CCC2(CC1)NC(=O)c1cccc(Cl)c1N2
819

Give RP-LC retention time for Cc1[nH]c(C(=O)N2CCCC(C(=O)NC(C)CCc3ccccc3)C2)c(C)c1C(=O)OC(C)C (centres undefined)
955

Give RP-LC retention time for COc1ccccc1NC(=O)CSC1CCc2ccccc2NC1=O (centres undefined)
793

====

Reported RP-LC retention time is given for each of the following molecules.
# assayName: gradient 5% acetonitrile 3 min, to 50% in 2 min, to 85% in 15 min, held 3 min, 100 µL/min
# conditionSet: column: Zorbax Extend-C18 2.1 x 50 mm; eluents: water / acetonitrile, 0.1% formic acid
Answer format: value, then unit.

molecule: COC(=O)c1ccccc1Nc1c(-c2ccc(N3CCOCC3)cc2)nc2cnccn12
measuredProperty: RP-LC retention time
val: 874 s
--
molecule: Cc1cccc(NC(=O)C2CCCN(c3nc4ccsc4c(=O)n3-c3cccc(C)c3)C2)c1 (centres undefined)
measuredProperty: RP-LC retention time
val: 1020 s
--
molecule: COc1ccc(CNC(=O)Cn2cnc3nc(N4CCC(C(=O)NC5CC5)CC4)sc3c2=O)cc1
measuredProperty: RP-LC retention time
val: 666 s

API: the following record is the query input.
Give RP-LC retention time for Cc1ccoc1C(=O)N1CC(F)(F)C[C@H]1c1nc(C2CC2)no1
723 s

====

# assayName: gradient 5% acetonitrile 3 min, to 50% in 2 min, to 85% in 15 min, held 3 min, 100 µL/min
# conditionSet: column: Zorbax Extend-C18 2.1 x 50 mm; eluents: water / acetonitrile, 0.1% formic acid
Param threshold (800 s) applies to RP-LC retention time; output Fulfilled when value >= threshold, Not fulfilled when value < threshold.

compound: O=C(C1CCN(S(=O)(=O)c2ccc3[nH]c(=O)ccc3c2)CC1)N1CCN(c2ccccc2F)CC1
answerLabel: Not fulfilled

compound: COc1ccc(C(=O)/C(Br)=C/C(=O)O)cc1
answerLabel: Not fulfilled

Item Cc1cc(C)c2c(n1)SCCN2C(=O)CCC(=O)NCc1ccccc1C with RP-LC retention time of 800 s or above?
Not fulfilled

Item COc1ccccc1NS(=O)(=O)c1ccc(-c2nnc(C3CCC3)o2)o1 with RP-LC retention time of 800 s or above?
Fulfilled

Item CCCn1cc(S(=O)(=O)Nc2ccc(F)cc2)c2cccnc21 with RP-LC retention time of 800 s or above?
Fulfilled

Item COc1ccc(-c2cc3c4nnc(SCC(=O)Nc5cccc(Br)c5)n4ccn3n2)cc1 with RP-LC retention time of 800 s or above?
Fulfilled

Item CCN1C(=O)c2c(C(=O)N3CCOCC3)ncn2CC1(C)C(=O)NCc1ccc(F)cc1 (stereo not given) with RP-LC retention time of 800 s or above?
Not fulfilled

Item O=c1ccc(-c2ccc3c(c2)OCO3)nn1CCc1nc(-c2ccc(F)cc2)no1 with RP-LC retention time of 800 s or above?
Fulfilled

Item O=C(Cn1nc2c3cc(-c4ccc(F)cc4)nn3ccn2c1=O)N1CCCc2ccccc21 with RP-LC retention time of 800 s or above?
Fulfilled

Item CC(C)(C)c1ccc(OCC(O)CN2CCN(C(=O)c3ccccc3)CC2)cc1 (stereo not given) with RP-LC retention time of 800 s or above?
Not fulfilled

Item O=C(NCc1ccc2c(c1)CCCN2C(=O)C1CC1)c1ccc(Br)o1 with RP-LC retention time of 800 s or above?
Fulfilled

====

# assayName: gradient 5% acetonitrile 3 min, to 50% in 2 min, to 85% in 15 min, held 3 min, 100 µL/min
# conditionSet: column: Zorbax Extend-C18 2.1 x 50 mm; eluents: water / acetonitrile, 0.1% formic acid
measuredProperty: RP-LC retention time (s)
The reply should be a number in s, with the unit left off.

Some compounds with known RP-LC retention time results, for comparison:
compound: O=C(N[C@H]1C[C@@H]2C[C@H]1N(C(=O)c1ccccc1Cl)C2)c1cccnc1
measurementUnits: s
val: 602
//
compound: O=C(NCCc1csc(-c2cccs2)n1)C1CCN(C(=O)CCC2CCCC2)CC1
measurementUnits: s
val: 901
//
compound: CCOC(=O)c1[nH]c(C)c(CN(Cc2ccco2)C(=O)c2ccc3c(c2)OCO3)c1C
measurementUnits: s
val: 935

Give RP-LC retention time for Cn1cnc(S(=O)(=O)N2CCC(C(=O)NC3CCCCC3)CC2)c1
659

Give RP-LC retention time for CCc1nnc(-c2cn(CC(=O)NCc3ccc(C)o3)c3ccccc23)o1
740

Give RP-LC retention time for Cc1ccc(NC(=O)CN2C(=O)NC3(CCCCC3)C2=O)c(C)c1
774

Give RP-LC retention time for COc1ccc(Cl)cc1-c1nc(-c2ccc3oc(C)nc3c2)no1
1060

Give RP-LC retention time for Cc1nc2c(c(N3CCSCC3)n1)CCC2
588

====

# assayName: gradient 5% acetonitrile 3 min, to 50% in 2 min, to 85% in 15 min, held 3 min, 100 µL/min
# conditionSet: column: Zorbax Extend-C18 2.1 x 50 mm; eluents: water / acetonitrile, 0.1% formic acid
measuredProperty: RP-LC retention time
Answer format: value, then unit.

smi: Cn1c(C(=O)N2CCN(c3ccccn3)CC2)cc2c(-c3cccs3)nn(-c3ccccc3)c21
RP-LC retention time: 749 s
--
smi: COc1ccc(NC(=O)c2cnc(N3CCN(CC(=O)N4CCCC4)CC3)nc2N)cc1
RP-LC retention time: 586 s
--
smi: Cc1ccc(-c2csc(NC(=O)c3ccc4c(c3)OCO4)n2)cc1
RP-LC retention time: 1060 s
--
smi: COCCC(=O)NCCC1CCN(C(=O)Nc2ccc(F)cc2F)CC1
RP-LC retention time: 643 s
--
smi: O=c1[nH]cnc2scc(-c3ccc(Cl)cc3)c12
RP-LC retention time: 734 s

API: the following record is the query input.
Give RP-LC retention time for CC(C)CNC(=O)CCc1nc2ccccc2n(CC(=O)NCc2ccc(F)cc2)c1=O
783 s
